System: OVCAR-4 ovarian
test.description: NCI-60 one-dose screen, 48 h (100 = growth as untreated, 0 = no growth, -100 = all killed)
experimental.parameters: 10 µM unless noted
Compounds without any hit were thinned out: in the full panel of roughly 83,000, 20% have a hit.
assay.metric: growth (%)
Number in %, nothing else.

Tell me measured growth for CCOC(=O)C(=Cc1cccc(Br)c1)C(=O)OCC please.
48.2

Return growth (reported value) for this compound: COc1cc(/C=C\c2cc(/C=C\c3ccc(O)c(OC)c3)n(C(=O)COc3ccc(Cl)cc3Cl)n2)ccc1O
31.4

Tell us which growth value is on record for COC(=O)c1c2c(c(C)[n+]([O-])c1C)C(=O)C=C(NCc1ccc(Br)cc1)C2=O
-92.8

Provide measured growth value, entry: COc1ccc2cc(C(=O)c3coc4ccc(O)cc34)ccc2c1
97.6

Consider the compound c1ccc(C2=NN[C@H](c3cn(-c4ccccc4)nc3-c3ccccc3)C2)cc1 . State its measured growth.
14.8

Give growth for CN(C)Cc1ccc(NC(=O)c2cncc(C#Cc3cnc(N)c4ncccc34)c2)cc1F
-71.3

Please supply the value of reported growth for the item CC1(C)CC[C@]2(c3nnc(-c4ccncc4)o3)CC[C@H]3C(=CC[C@H]4[C@@]3(C)CC[C@H]3C(C)(C)C(=O)CC[C@]43C)[C@@H]2C1
70.1

Consider the compound O=C1N[C@@H]2NC(=[N+]3CCOCC3)N[C@@H]2N1 and give its recorded growth.
107

Respond only with growth recorded for CCOC(=O)c1cc2c(=O)oc3ccccc3c2oc1=O
96.4
